Values were extracted from patent US20250215104A1.

target: T1, human soluble urokinase plasminogen activator receptor (suPAR) (human, UniProt Q03405 23-303, limits assumed); test: BLI (Octet) off-rate screen of scFv clones
T1 construct: Column head says only 'human'; also called hsuPAR; human suPAR
T1 sequence (Q03405 23-303 limits assumed): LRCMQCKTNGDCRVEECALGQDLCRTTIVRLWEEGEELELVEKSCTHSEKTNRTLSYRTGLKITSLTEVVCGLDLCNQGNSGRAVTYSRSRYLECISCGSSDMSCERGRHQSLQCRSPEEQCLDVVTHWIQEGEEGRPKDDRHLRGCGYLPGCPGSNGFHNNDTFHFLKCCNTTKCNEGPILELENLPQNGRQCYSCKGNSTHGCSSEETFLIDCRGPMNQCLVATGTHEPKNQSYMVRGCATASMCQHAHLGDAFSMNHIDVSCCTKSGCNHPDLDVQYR
Observed property: koff (s⁻¹)
Dear colleague, please return just the value in s⁻¹, with no unit written.

koff in this record for suPAR_DB05_E02 (scFv, V domains shown, Screened as scFv) VH: QVQLVQSGAEVKKPGASVKVSCKASGYTFTSYYMHWVRQAPGQGLEWMGWIDLNSGGAKYAQRFQGRVTMTRDTSTSTVYMELSSLRSEDTAVYYCARGYDVDWFVYWGQGTLVTVSS VL: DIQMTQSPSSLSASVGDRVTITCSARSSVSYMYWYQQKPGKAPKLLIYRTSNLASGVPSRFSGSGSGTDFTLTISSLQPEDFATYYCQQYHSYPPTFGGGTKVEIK : 0.00517

koff in this record for suPAR_DB04_H10 (scFv, V domains shown, Screened as scFv) VH: QVQLVQSGAEVKKPGASVKVSCKASGYTFTSYYMHWVRQAPGQGLEWMGWISPDSGGTNYAQKFQGRVTMTRDTSTSTVYMELSSLRSEDTAVYYCARGYDVDWFVYWGQGTLVTVSS VL: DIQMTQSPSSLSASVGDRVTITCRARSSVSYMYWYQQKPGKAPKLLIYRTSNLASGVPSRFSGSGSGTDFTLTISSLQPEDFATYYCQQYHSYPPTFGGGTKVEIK : 0.00354

koff in this record for suPAR_DB05_D03 (scFv, V domains shown, Screened as scFv) VH: QVQLVQSGAEVKKPGASVKVSCKASGYTFGNYYMHWVRQAPGQGLEWMGWIDHENGNTIYAQKFQGRVTMTRDTSTSTVYMELSSLRSEDTAVYYCARGNDVDWFVYWGQGTLVTVSS VL: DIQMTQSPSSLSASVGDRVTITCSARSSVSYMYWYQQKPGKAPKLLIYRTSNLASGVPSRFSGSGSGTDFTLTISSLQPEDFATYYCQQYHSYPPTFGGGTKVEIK : 0.00345
